Recorded IP CCI efficacy (Change in grams), one value per entry.
- Tested on: rat chronic constriction injury (CCI) model of neuropathic pain
- measurement protocol: Rat chronic constriction injury (CCI) model of neuropathic pain
- Type: in vivo
- assay setup: IP, dose not given; 50% paw withdrawal threshold, von Frey
The response must be a number in grams with no trailing unit.

// known answers, use as guide
CC(C)Nc1nccc(-c2cnn3ccccc23)n1 ... 1.56
CCC(CC)Nc1nccc(-c2c(C(C)C)nn3ccccc23)n1 ... 0.67
CC(C)c1nn2ccccc2c1-c1ccnc(NC2CCC2)n1 ... 0.33

[Q] Please report the measured IP CCI efficacy (Change in grams) for CC(C)Nc1nccc(-c2c(C(C)C)nn3ccccc23)n1
[A] 3.26

[Q] Indicate the recorded IP CCI efficacy (Change in grams) value for this compound: CCCNc1nccc(-c2c(C(C)C)nn3ccccc23)n1
[A] 1.85

###

- tgt: recombinant human phosphodiesterase 10A1 enzyme (Homo sapiens)
- Construct: purchased BPS Biosciences; host or cells: Baculovirus infected Sf9 cells
- Sequence (Q9Y233 1-779 isoform Q9Y233-1): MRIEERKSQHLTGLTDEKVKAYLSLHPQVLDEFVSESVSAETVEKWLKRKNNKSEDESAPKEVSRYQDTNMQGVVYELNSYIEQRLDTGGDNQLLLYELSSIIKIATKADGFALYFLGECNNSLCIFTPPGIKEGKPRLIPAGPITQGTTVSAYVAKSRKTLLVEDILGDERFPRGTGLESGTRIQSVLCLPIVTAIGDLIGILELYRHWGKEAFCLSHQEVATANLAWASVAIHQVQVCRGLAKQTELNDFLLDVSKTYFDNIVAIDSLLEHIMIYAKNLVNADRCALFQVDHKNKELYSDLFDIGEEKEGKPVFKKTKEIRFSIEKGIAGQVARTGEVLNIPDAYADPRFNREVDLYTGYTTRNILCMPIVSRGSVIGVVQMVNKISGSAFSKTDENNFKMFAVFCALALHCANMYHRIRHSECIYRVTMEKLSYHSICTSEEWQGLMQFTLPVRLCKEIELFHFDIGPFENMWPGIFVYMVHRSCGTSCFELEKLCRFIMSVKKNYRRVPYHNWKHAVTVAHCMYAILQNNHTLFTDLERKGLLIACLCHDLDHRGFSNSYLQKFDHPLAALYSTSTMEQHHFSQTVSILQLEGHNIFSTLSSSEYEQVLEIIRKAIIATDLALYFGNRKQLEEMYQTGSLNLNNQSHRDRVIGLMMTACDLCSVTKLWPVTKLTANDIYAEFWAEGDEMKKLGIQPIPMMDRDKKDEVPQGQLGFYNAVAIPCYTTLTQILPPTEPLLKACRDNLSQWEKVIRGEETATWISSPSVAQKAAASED
- measurement protocol: PDE10 inhibition assay (PDELight)
- Type: biochemical
- assay setup: 1 uM cAMP; read-out: PDE 10 Inhibition (IC50 in μM)
Response field label: string, one of criterion met (IC50 strictly below 9 µM) or criterion not met.

Study these solved cases before continuing.
CC(C)c1nn2ccccc2c1-c1ccnc(NS(C)(=O)=O)n1 ... criterion not met
c1ccn2nc(C3CC3)c(-c3ccnc(NC4CC4)n3)c2c1 ... criterion met
c1ccn2nc(C3CC3)c(-c3ccnc(NC4CCCC4)n3)c2c1 ... criterion met
CC(C)Cc1nn2ccccc2c1-c1ccnc(NC2CCCC2)n1 ... criterion not met
CC(C)c1nn2ccccc2c1-c1ccnc(NCCCO)n1 ... criterion not met
CCC(CC)Nc1nccc(-c2c(C(C)C)nn3ccccc23)n1 ... criterion not met
O=S(=O)(Nc1nccc(-c2cnn3ccccc23)n1)c1ccccc1 ... criterion not met
CC(C)c1nn2ccccc2c1-c1ccc(N)nc1 ... criterion met

Moving on to another compound below.
[Q] Determine whether this compound shows IC50 lower than 9 µM (ties excluded): CC(C)Nc1nccc(-c2cccc3cc(C(C)C)nn23)n1
[A] criterion not met

###

- tgt: recombinant full length human JNK3 enzyme (Homo sapiens, UniProt P53779)
- Construct: recombinant full length human JNK2 or JNK3 enzyme; purchased Upstate; host or cells: Sf21 cells
- Sequence (P53779 whole entry): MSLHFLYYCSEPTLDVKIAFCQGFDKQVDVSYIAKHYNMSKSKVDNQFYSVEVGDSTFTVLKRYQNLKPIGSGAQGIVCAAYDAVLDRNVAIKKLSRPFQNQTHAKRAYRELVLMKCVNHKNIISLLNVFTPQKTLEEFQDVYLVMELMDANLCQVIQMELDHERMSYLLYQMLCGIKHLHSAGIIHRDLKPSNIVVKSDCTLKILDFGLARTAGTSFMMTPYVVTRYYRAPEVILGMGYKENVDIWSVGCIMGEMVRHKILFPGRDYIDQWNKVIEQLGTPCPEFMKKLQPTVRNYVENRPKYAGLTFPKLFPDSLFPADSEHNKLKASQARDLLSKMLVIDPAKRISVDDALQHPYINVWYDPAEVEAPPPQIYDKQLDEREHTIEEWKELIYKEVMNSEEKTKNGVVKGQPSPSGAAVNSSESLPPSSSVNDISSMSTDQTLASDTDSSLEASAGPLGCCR
- measurement protocol: JNK 3 inhibition assay (ATP depletion, luciferase)
- Assay type: biochemical
- assay setup: see Table 2
measured quantity: JNK-3 inhibition (in words)

Reference set, count: 5
CC(C)Nc1nccc(-c2c(-c3cccc(F)c3)nn3ccccc23)n1 ... particularly effective
CC(C)c1nn2ccccc2c1-c1ccnc(NC2CC2)n1 ... particularly effective
CCCNc1nccc(-c2cnn3ccccc23)n1 ... particularly effective
c1ccn2nc(C3CC3)c(-c3ccnc(NC4CC4)n3)c2c1 ... particularly effective
c1ccn2nc(C3CC3)c(-c3ccnc(NC4CCCC4)n3)c2c1 ... particularly effective

[Q] Report measured JNK-3 inhibition (in words); entry is CC(C)Cc1nn2ccccc2c1-c1ccnc(NC(C)C)n1
[A] particularly effective

[Q] Note down JNK-3 inhibition (in words) recorded for CC(C)Nc1nccc(-c2cnn3ccccc23)n1
[A] particularly effective

[Q] Tell me its JNK-3 inhibition (in words) given Cc1cccc2c(-c3ccnc(NC(C)C)n3)cnn12 as the entry.
[A] particularly effective

[Q] Determine from records and report JNK-3 inhibition (in words) for Clc1cccc(-c2nn3ccccc3c2-c2ccnc(NC3CCCC3)n2)c1
[A] particularly effective

[Q] Return value of JNK-3 inhibition (in words) for input Cc1cccc2c(-c3ccnc(NC4CCCC4)n3)cnn12 , no commentary.
[A] particularly effective

[Q] Please report the measured JNK-3 inhibition (in words) for Fc1cccc(-c2nn3ccccc3c2-c2ccnc(NC3CCCC3)n2)c1
[A] particularly effective

[Q] For the molecule Brc1cccc(-c2nn3ccccc3c2-c2ccnc(NC3CCCC3)n2)c1 , give its reported JNK-3 inhibition (in words).
[A] particularly effective

[Q] State its JNK-3 inhibition (in words): CC(C)Nc1nccc(-c2c(-c3ccccc3)nn3ccccc23)n1
[A] particularly effective

[Q] Please indicate JNK-3 inhibition (in words) recorded for CC(C)Nc1nccc(-c2c(C3CC3)nn3ccccc23)n1
[A] particularly effective

[Q] State its JNK-3 inhibition (in words) for this molecule: CC(C)CNc1nccc(-c2cnn3ccccc23)n1
[A] particularly effective

###

Below, each entry is listed with its recorded EC50.
- Test system: phosphorylated c-Jun (serine-73)
- measurement protocol: Phosphorylated c-JUN (A-beta), SH-SY5Y
- Assay type: cell-based
- assay setup: Homo sapiens, Amyloid Beta peptide 30 uM, 3 hours, read-out: p-cJun Abeta SH-SY5Y (EC50 in μM)
- Description: In 96-well plates either human SH-SY5Y neuroblastoma cells at 2.5×10^4 cells/well or E18 rat neuronal cells at 1.5×10^4 cells/well were seeded. […] Supernatant was discarded and cells were fixed with 4% paraformaldehyde (100 ul/well) for 20 minutes. FACE cell based ELISA assay (Active Motif) was performed specific for quantifying phosphorlyated c-Jun (serine-73).
Numeric only. Scale: µM

// worked examples, EC50 included
CC(C)Nc1nccc(-c2cnn3ccccc23)n1 [AV1164] ... 2.9
CC(C)C(=O)c1c(C(C)C)nn2ccccc12 [AV411, reference compound] ... 3.8
CCCNc1nccc(-c2cnn3ccccc23)n1 [AV1166] ... 11
Cc1cccc2c(-c3ccnc(NC(C)C)n3)cnn12 [AV1183] ... 5.4
Fc1cccc(-c2nn3ccccc3c2-c2ccnc(NC3CCCC3)n2)c1 [AV1180] ... 4.1

[Q] Identify measured EC50 corresponding to Cc1cccc2c(-c3ccnc(NC4CCCC4)n3)cnn12 [AV1184]
[A] 8.3

###

- tgt: recombinant human phosphodiesterase 10A1 enzyme (Homo sapiens)
- Construct: purchased BPS Biosciences; host or cells: Baculovirus infected Sf9 cells
- measurement protocol: PDE10 inhibition assay (PDELight)
- Type: biochemical
- assay setup: 1 uM cAMP; read-out: PDE 10 Inhibition (IC50 in μM)
measured quantity: IC50 (µM)
Value expressed in µM; do not type the unit.

CCCCc1nn2ccccc2c1-c1ccnc(NC(C)C)n1 ... 31
CC(C)Nc1ncc(-c2c(C(C)C)nn3ccccc23)cn1 ... 7.4
CC(C)C(=O)c1c(C(C)C)nn2ccccc12 [AV411, reference compound] ... 6.3

[Q] Query IC50 for CC(C)CNc1nccc(-c2c(C(C)C)nn3ccccc23)n1
[A] 8.4

[Q] Give the value of IC50 reported for the following: CC(C)Nc1nccc(-c2c(C3CC3)nn3ccccc23)n1
[A] 7.4

[Q] State its IC50: CC(C)c1nn2ccccc2c1-c1ccnc(N(C)C)c1
[A] 5.4

[Q] Output IC50 of CCCNc1nccc(-c2cnn3ccccc23)n1
[A] 38.2

###

- tgt: catalytic domain of phosphodiesterase 4B enzyme cloned from human brain (Homo sapiens)
- Construct: the catalytic domain of phosphodiesterase 4B enzyme; purchased Scottish Biomedical
- Sequence (Q07343 330-659 limits assumed): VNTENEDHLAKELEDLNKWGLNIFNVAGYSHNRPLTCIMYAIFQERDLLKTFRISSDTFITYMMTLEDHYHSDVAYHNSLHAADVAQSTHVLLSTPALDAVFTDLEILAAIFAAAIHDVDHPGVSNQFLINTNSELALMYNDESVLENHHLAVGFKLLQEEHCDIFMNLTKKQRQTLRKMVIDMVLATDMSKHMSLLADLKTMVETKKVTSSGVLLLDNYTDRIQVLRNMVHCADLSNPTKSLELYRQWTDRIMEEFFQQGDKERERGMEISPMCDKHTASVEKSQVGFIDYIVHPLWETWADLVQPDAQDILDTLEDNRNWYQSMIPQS
- measurement protocol: PDE4 inhibition assay (PDELight)
- Assay type: biochemical
- assay setup: 5 uM cAMP; read-out: PDE 4 Inhibition (IC50 in μM)
Lab note - cut at 20 µM for IC50: 1 (yes) if strictly below, 0 (no) if not.

CC(C)c1nn2ccccc2c1-c1ccc(N)nc1 [AV1196] ... 0 (no)
Cc1cccc2c(-c3ccnc(NC4CCCC4)n3)cnn12 [AV1184] ... 1 (yes)

[Q] Field: below-cutoff. Rule: recorded IC50 strictly less than 20 µM. Subject: CC(C)c1nn2ccccc2c1-c1ccnc(NS(=O)(=O)c2ccccc2)n1 [AV1190]
[A] 0 (no)

[Q] Is the reported IC50 for CCCNc1nccc(-c2cnn3ccccc23)n1 [AV1166] strictly below 20 µM?
[A] 1 (yes)

[Q] Lab note: confirm whether the reported IC50 for this compound is below 20 µM, equality not counting. compound: CC(C)Nc1nccc(-c2c(C(C)(C)C)nn3ccccc23)n1 [AV1157]
[A] 0 (no)

[Q] Consider CC(C)c1nn2ccccc2c1-c1ccnc(N)c1 [AV105] . Does its IC50 lie strictly below 20 µM?
[A] 0 (no)

###

- tgt: recombinant human phosphodiesterase 10A1 enzyme (Homo sapiens)
- Construct: purchased BPS Biosciences; host or cells: Baculovirus infected Sf9 cells
- measurement protocol: PDE10 inhibition assay (PDELight)
- Assay type: biochemical
- assay setup: 1 uM cAMP; read-out: PDE 10 Inhibition (IC50 in μM)
Catalogue of compounds with associated IC50
Report as a plain number; the unit µM is understood.

CC(C)Nc1ccc(-c2c(C(C)C)nn3ccccc23)cn1 [AV1197] ... 17
CC(C)c1nn2ccccc2c1-c1ccnc(NC2CCCC2)c1 [AV1021] ... 12
CC(C)Nc1nccc(-c2c(C(C)C)nn3ccccc23)n1 [AV1137] ... 9.9

Turning to the following compound.
[Q] Note IC50 for the compound shown: CC(C)c1nn2ccccc2c1-c1ccc(NC2CCCC2)nc1 [AV1199]
[A] 7.1
